Test system: Amaranthus
Experiment Summary: Post-emergence test
Format: in vivo
Condition Description: Amaranthus, 504 h, greenhouse, 1000 g of ai./ha, after three weeks, read-out: degree of damage to the plants (% damage), Amaranthus
Test Readout: pest or weed control at 1000 g/ha (%)
Quick reminder: number only, in %, skip the unit.

Previously resolved entries follow.
## Input I have this compound here, CCC(CCc1ccsc1)Nc1nc(N)nc(C(C)(C)F)n1 (centres unmarked) [Example 33] , and I need its recorded pest or weed control at 1000 g/ha.
## Output 100

## Input Query: pest or weed control at 1000 g/ha; subject: CCC(CCc1cccs1)Nc1nc(N)nc(C(C)F)n1 (centres unmarked) [Example 23]
## Output 100

## Input I'd like to know its pest or weed control at 1000 g/ha. The compound in question is CCC(CCc1ccccc1)Nc1nc(N)nc(C(F)(F)F)n1 (centres unmarked) [Example 41]
## Output 100

## Input # input compound: CCC(CCc1ccccn1)Nc1nc(N)nc(C(C)(C)F)n1 (centres unmarked) [Example 22] ; wanted: its pest or weed control at 1000 g/ha
## Output 95

Kindly consider the entry below.
## Input Could you share which pest or weed control at 1000 g/ha value was measured for CCC(COc1ccccc1)Nc1nc(N)nc(C(F)(F)F)n1 (centres unmarked) [Example 2] ?
## Output 100

Ref: patent US6403794B2
